Target: T1, GFP-9S library array, motif 4 ND N98L;D124M (synthetic construct, N98L;D124M)
T1 chain: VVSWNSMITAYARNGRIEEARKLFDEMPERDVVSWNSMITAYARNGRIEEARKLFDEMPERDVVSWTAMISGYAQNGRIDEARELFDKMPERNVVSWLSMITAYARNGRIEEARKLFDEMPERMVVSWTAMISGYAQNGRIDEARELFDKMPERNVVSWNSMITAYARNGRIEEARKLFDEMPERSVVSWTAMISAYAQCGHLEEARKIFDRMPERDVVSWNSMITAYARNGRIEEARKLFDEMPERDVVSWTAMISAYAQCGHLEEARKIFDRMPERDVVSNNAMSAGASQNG
Assay: high-throughput RNA pulldown from lysate on Ni-NTA beads; HRP: 50 mM Tris pH 8, 150 mM NaCl, 1 mM beta-mercaptoethanol, 50 ug/ml BSA, 3 ug/ml yeast RNA, 0.5% heparin; ITC and FP: Tris pH 8, 200 mM KCl, 5% glycerol; MST: 50 mM Tris pH 8, 200 mM NaCl, 1 mM DTT, BSA, heparin, 0.05% Tween 20
Details: tags: N-terminal His-eGFP; label: 5' Cy5
Reported Kd values follow for various binders
Supply the numeric figure in nM, leaving out any unit text.

1. AUUACACGUGA (ssRNA) [Cy5-rpoA] ... 104

The record that follows has no Kd shown yet.
Prompt line: Return the recorded Kd value; entry: AUUAGACGUGA (ssRNA) [Cy5-rpoA-G]
Response line: 122
